Tested on: E. coli ST131
procedureSummary: MIC by broth microdilution
Format: cell-based, Escherichia coli
appliedConditions: peptidomimetic alone
reportedEndpoint: MIC E. coli ST131
Don't forget the unit after the value.

# MIC E. coli ST131 lookup, item C[C@@H](c1ccccc1)N(CCC(N)=O)C(=O)[C@H](CCCCNC(=N)N)NC(=O)CCN(C(=O)[C@H](CCCCN)NC(=O)CCN(C(=O)[C@H](CCCCNC(=N)N)NC(=O)CCN(C(=O)[C@H](CCCCN)NC(=O)CCN(C(=O)[C@H](CCCCNC(=N)N)NC(=O)CCN(C(=O)[C@H](CCCCN)NC(=O)CNCCCNCCCCNCCCN)[C@@H](C)c1ccccc1)[C@@H](C)c1ccccc1)[C@@H](C)c1ccccc1)[C@@H](C)c1ccccc1)[C@@H](C)c1ccccc1 [Peptidomimetic 26, Spermine-(Lys-βNspe-hArg-βNspe)3-NH2] 1 µM

---

For each entry below, report its MIC E. coli ST131 value.
System: E. coli ST131
procedureSummary: MIC by broth microdilution
Assay type: cell-based, Escherichia coli
appliedConditions: peptidomimetic alone
Numbers only, in µM.

Solved cases (4 shown):
molecule	reportedEndpoint	obsValue
COCCOCCOCC(=O)N[C@@H](CCCCN)C(=O)N(CCC(=O)N[C@@H](CCCCNC(=N)N)C(=O)N(CCC(=O)N[C@@H](CCCCN)C(=O)N(CCC(=O)N[C@@H](CCCCNC(=N)N)C(=O)N(CCC(=O)N[C@@H](CCCCN)C(=O)N(CCC(=O)N[C@@H](CCCCNC(=N)N)C(=O)N(CCC(N)=O)[C@@H](C)c1ccccc1)[C@@H](C)c1ccccc1)[C@@H](C)c1ccccc1)[C@@H](C)c1ccccc1)[C@@H](C)c1ccccc1)[C@@H](C)c1ccccc1 [Peptidomimetic 28, TODA-(Lys-βNspe-hArg-βNspe)3-NH2]	MIC E. coli ST131	2
NCCCC[C@H](NC(=O)CCN(Cc1ccccc1)C(=O)[C@H](CCCCN)NC(=O)CCN(Cc1ccccc1)C(=O)[C@H](CCCCN)NC(=O)CCN(Cc1ccccc1)C(=O)[C@H](CCCCN)NC(=O)CCN(Cc1ccccc1)C(=O)[C@H](CCCCN)NC(=O)CCN(Cc1ccccc1)C(=O)[C@H](CCCCN)NC(=O)CCN(Cc1ccccc1)C(=O)[C@H](CCCCN)NC(=O)CCN(Cc1ccccc1)C(=O)[C@@H](N)CCCCN)C(=O)N(CCC(N)=O)Cc1ccccc1 [Peptidomimetic 1, H-(Lys-βNPhe)8-NH2]	MIC E. coli ST131	2
CC(=O)N[C@@H](CCCCN)C(=O)N(CCC(=O)N[C@@H](CCCCN)C(=O)N(CCC(=O)N[C@@H](CCCCN)C(=O)N(CCC(=O)N[C@@H](CCCCN)C(=O)N(CCC(=O)N[C@@H](CCCCN)C(=O)N(CCC(=O)N[C@@H](CCCCN)C(=O)N(CCC(=O)N[C@@H](CCCCN)C(=O)N(CCC(=O)N[C@@H](CCCCN)C(=O)N(CCC(N)=O)Cc1ccccc1)Cc1ccccc1)Cc1ccccc1)Cc1ccccc1)Cc1ccccc1)Cc1ccccc1)Cc1ccccc1)Cc1ccccc1 [Peptidomimetic 15, Ac-(Lys-βNPhe)8-NH2]	MIC E. coli ST131	1
C[C@@H](c1ccccc1)N(CCC(N)=O)C(=O)[C@H](CCCCNC(=N)N)NC(=O)CCN(C(=O)[C@H](CCCCN)NC(=O)CCN(C(=O)[C@H](CCCCNC(=N)N)NC(=O)CCN(C(=O)[C@H](CCCCN)NC(=O)CCN(C(=O)[C@H](CCCCNC(=N)N)NC(=O)CCN(C(=O)[C@H](CCCCN)NC(=O)CNCCN)[C@@H](C)c1ccccc1)[C@@H](C)c1ccccc1)[C@@H](C)c1ccccc1)[C@@H](C)c1ccccc1)[C@@H](C)c1ccccc1 [Peptidomimetic 25, NDab-Lys-βNspe-hArg-βNspe)3-NH2]	MIC E. coli ST131	2

Which MIC E. coli ST131 is reported with E. coli ST131 for this entry: CC(=O)N[C@@H](CCCCN)C(=O)N(CCC(=O)N[C@@H](CCCCN)C(=O)N(CCC(=O)N[C@@H](CCCCN)C(=O)N(CCC(=O)N[C@@H](CCCCN)C(=O)N(CCC(=O)N[C@@H](CCCCN)C(=O)N(CCC(=O)N[C@@H](CCCCN)C(=O)N(CCC(N)=O)Cc1ccccc1)Cc1ccccc1)Cc1ccccc1)Cc1ccccc1)Cc1ccccc1)Cc1ccccc1 [Peptidomimetic 14, Ac-(Lys-βNPhe)6-NH2] ? 4
